The origin of these recorded values is patent US9862726B2.

Molecular target: μ-opioid receptor (Homo sapiens (Human), UniProt P35372)
Assay: μ-opioid receptor radioligand dose-displacement binding assay (HEK-293 cells)
Conditions: bound given in μM

smilesNotation	Ki
COc1ccc2c(c1)[C@]13CCN(CC4CC4)[C@H](C2=O)[C@]12CC[C@](O)(C3)C(=O)O2	> 20 µM
COc1ccc2c(c1)[C@]13CCN(CC4CC4)[C@H]([C@@H]2O)[C@]12CC[C@](O)(C3)C(=O)O2	> 20 µM

###

Target: κ-opioid receptor (Homo sapiens (Human))
Assay: κ-opioid receptor [35S]GTPγS functional assay (HEK-293 cells)
Type: biochemical
Conditions: HEK-293 cells; relative to U69,593
Reported Emax values for the following molecules.
valueType: Emax (%)

molecule	measValue
COc1ccc2c(c1)[C@]13CCN(CC4CC4)[C@H](C2)[C@]12CC[C@](N)(C3)C(=O)O2 [Compound 3]	79.7
COc1ccc2c(c1)[C@]13CCN(CC4CC4)[C@H](C2)[C@]12CC[C@@](NC(=O)C(C)(C)C)(CO2)C3 [Compound 21]	97.3
O=C(N[C@]12CC[C@@]3(OC1)[C@H]1Cc4ccc(O)cc4[C@@]3(CCN1CC1CC1)C2)c1ccccc1 [Compound 27]	94.2
COc1ccc2c(c1)[C@]13CCN(CC4CC4)[C@H](C2)[C@]12CC[C@](O)(C3)C(=O)O2 [Compound 4]	92
N[C@]12CC[C@@]3(OC1)[C@H]1Cc4ccc(O)cc4[C@@]3(CCN1CC1CC1)C2 [Compound 17]	75
O=C1O[C@@]23CC[C@]1(O)C[C@@]21CCN(CC2CC2)[C@@H]3Cc2ccc(O)cc21 [Compound 9]	54
